Attribution: the supplement of paper PMC10724198

# Test system: Saccharomyces cerevisiae
# procedureDetails: protein stability index of tFT-peptide fusion (C-terminal peptide) (PSI (0-1 scale)); higher = more stable (slower turnover)
# conditionLabel: genetic background: wild type; temperature: 30 C
observationType: protein stability index
Answer with the value's number alone.

Given LCFRLVSYLCIN , state its recorded protein stability index.
0.39

Then this sequence: SRVLLPPQTLLL
0.573

Repeat for the following sequence: KTNLSNRKKHKG
0.653

Moving on to the next sequence: CCCVLMTFTSSP
0.561

Please do the same for LQPATGPQRVIS as well.
0.665

Now the sequence KQLEKRKRIIEE
0.764

Try this sequence too: SWEIGHLLPGTD
0.667

Entry to check: DRCLFRFNLWGG
0.72

What do we get for KRIVGIFINRKI ?
0.586

Item: RRKHKSEEKHKR
0.649

* * *

# Tested on: Saccharomyces cerevisiae
# procedureDetails: protein stability index of tFT-peptide fusion (C-terminal peptide) (PSI (0-1 scale)); higher = more stable (slower turnover)
# conditionLabel: genetic background: doa10 deletion; temperature: 30 C
Can you tell me protein stability index for the items I'm about to list?
Please reply with the number alone, leaving off any unit.

Short answer please: protein stability index, Saccharomyces cerevisiae, entry VTVWVFVFLRGL
0.294

Now try GGCYAGVAMRLI .
0.632

Similarly, VFIVVEFRLSLY ?
0.15

Next sequence up: AYSVIPSLALLP
0.646

# iterate: PFLCLPFLLVSR
0.467

Thanks! And GGWSLFCIVVVV ?
0.167

Also RWRLWGGWWVVG ?
0.191

// same read-out, input: HGVRLHTVWVGG
0.347

// query: EWGLGEIVVKVA
0.138

Proceed to LFSVLVFIYFVM
0.17

Request: TGPVFVSFRLLH
0.384

What do you have for LLPYSLSLALRA ?
0.26

Next sequence up: FTNLDYTKEKNN
0.134

Another sequence to look at: VGTIVLTCIEVN
0.152

Lookup LFGRVLSGILSV
0.474

Thanks! And CGLLSALSCLVF ?
0.419

// same read-out, input: VGFYGRWVCVAC
0.236

Record: DYRCWCAILVSS
0.146

Let us now turn to VFFHFFVCWRFV
0.0556

Another sequence: LLSGHFRLLLAF
0.0793

Please answer likewise for WVGGVLLSVVGG
0.179

How about GVFLVWWVGFWV ?
0.223

// next record VYVRYYVRVVVI
0.0369

Try this sequence next: CFTLSLCLAFFF
0.324

How about RFGLPLLVVTWL ?
0.459

Entry RDTTQRRRKTAA please
0.443

Can you handle RFLFYSFPIHTL next?
0.0683

Consider next the sequence LGVLVVAFCGGC in the same way.
0.325

How about this sequence: RGSLYLILVLIG
0.118

Same for RYQDLSDWRRIS
0.073

LCIYNFGWWFCV ?
0.121

Now try IGSFYVLSFICQ .
0.438

And what about the sequence LRNVPCLVFFWV ?
0.334

Now consider FCVLLFCAVSDL .
0.212

FCGWLGVYLVKG ?
0.481

What do you have for LPLLLFYLPIIW ?
0.414

Item: FFLDRLVIRLIA
0.0576

What do you have for FSVLLLANFCFF ?
0.363

NLTAIIYTLVVD , same question.
0.197

Now this one: FGPRLLRVMRLL
0.128

* * *

For each record, write down the corresponding protein stability index.
# System: Saccharomyces cerevisiae
# procedureDetails: protein stability index of tFT-peptide fusion (C-terminal peptide) (PSI (0-1 scale)); higher = more stable (slower turnover)
# conditionLabel: genetic background: wild type; temperature: 30 C
Respond using a number only.

Returns the measured protein stability index for the input sequence. Input: PAPLSPTHPPLP
0.71

Follow-up entry: PPPLTPSPPPPP
0.663

Lookup PNESFLLPELNH
0.711

// same read-out, input: GGGGGGGGVKGV
0.66

Now give it for KHKKKRTRDHEE too.
0.666

Now the sequence FFYRFQDLPRIC
0.397

Next up: PRPPSSSPHPHP
0.727

Next entry: VGTIVLTCIEVN
0.279

Check PSRLPSPPPPPP too.
0.721

Proceed to RDQPPPLPFTRP
0.712

* * *

# Tested on: Saccharomyces cerevisiae
# procedureDetails: protein stability index of tFT-peptide fusion (C-terminal peptide) (PSI (0-1 scale)); higher = more stable (slower turnover)
# conditionLabel: genetic background: wild type; temperature: 30 C
observationType: protein stability index
Please state the value as a number alone, without comment.

Entry LRPPPPPASVCR : reported protein stability index = ?
0.646

Consider next the sequence FFLFFLSFGCFL in the same way.
0.529

Further, for VPLPLHLPPPLP ?
0.863

Quick one: PSYKRGGSYPMQ
0.692

What do you have for SLAFIRFPSPSP ?
0.668

// repeat for CRLSCRSVDAST and report
0.662

Another sequence to look at: PVFGRPFCSSSV
0.682

Then this sequence: RCLGVCRAESLP
0.682

Item: RSGPLFPLSCPP
0.767

# repeat for PPLTHASPLHLI
0.585

Thanks! And PSLSPSLLRFNL ?
0.66

Moving on to SVLSFGVFCLVG
0.538

Input RAPPPSSLLSPP
0.402

How about this sequence: DRNVMNGFTRPG
0.659

Next entry: SAFLRRFLFFQW
0.572

Next: PLAPPHRPALLM
0.568

Same for CIVFVYCLFSCP
0.32

Please do the same for RLSFAWGGLLVV as well.
0.523

Same again, this time with GNNREGYRSAQA
0.599

* * *

Exercise: for every item that follows, state its recorded protein stability index.
# Tested on: Saccharomyces cerevisiae
# procedureDetails: protein stability index of tFT-peptide fusion (C-terminal peptide) (PSI (0-1 scale)); higher = more stable (slower turnover)
# conditionLabel: genetic background: wild type; temperature: 30 C
The answer should be written as a number, with no unit following it.

What measured protein stability index goes with FPSSALPPRLSL ?
0.741

// next record CGSHNRGLSSQL
0.676

Let us now turn to PPSPPPPLPLLP
0.661

Now give it for ADRGLVSLAIVG too.
0.582

Another sequence to look at: LGVGVGGRGVRG
0.745

Next record, please: SLGWGRVNVCGV
0.666

Next up: IRQTIEGRRLVM
0.662

Continue with PPPPPAPLPSSL
0.671

Please give the result for SPPSLPPLPPRF too.
0.702

Query GREGGEQRKEGK next
0.692

What do we get for HTYSFRLLFIFL ?
0.388

# repeat for YFKLLHSRPSVG
0.675

Next: LSLSPLPAPCPP
0.713

Would you mind doing DMYSVTRDHVMI as well?
0.655

Check KKIDQAKETSLS too.
0.68

Now consider VWGRRVMESHGE .
0.628

Lookup FLLCFLRIPSCP
0.522

Next entry: PPAPTPFPPSPR
0.593

Entry to check: SPVPITVAVGCR
0.407

* * *

# Test system: Saccharomyces cerevisiae
# procedureDetails: protein stability index of tFT-peptide fusion (C-terminal peptide) (PSI (0-1 scale)); higher = more stable (slower turnover)
# conditionLabel: genetic background: das1 deletion; temperature: 30 C
observationType: protein stability index
// return a plain number; no unit text

Quick check: protein stability index of PFALPSNDKVFF [ATO2 C-terminal 12 aa] ?
0.698

And for SPRLKENEHVTN [MPC54 C-terminal 12 aa] ?
0.693

Follow-up item: PHSQNEILQYYL [NAT1 C-terminal 12 aa]
0.705

Continue with EATIENLKRLKL [VAS1 C-terminal 12 aa]
0.693

Moving on to the next sequence: TNYEVTDTYTNS [SOM1 C-terminal 12 aa]
0.711

Then what about the sequence NESLNDYFTGIK [YBP1 C-terminal 12 aa] ?
0.706

One more sequence: KSDLISNIRQKI [RBH1 C-terminal 12 aa]
0.716

Another sequence: LVSYFIKVQMKL [ECM3 C-terminal 12 aa]
0.487

Also ACYVQLKKSGAF [COX8 C-terminal 12 aa] ?
0.697

Another sequence: TFCVYENLKHRL [FLX1 C-terminal 12 aa]
0.741

And for EAAKYFREQYKN [MET6 C-terminal 12 aa] ?
0.705

Input ELQEKVEQLSKW [POL3 C-terminal 12 aa]
0.721

And KSAKTAKASQEL [HTA2 C-terminal 12 aa] ?
0.705

And for RKFFKRMTNFWC [TAT1 C-terminal 12 aa] ?
0.741

Please give the result for TVSLPSRYSRYN [ALR2 C-terminal 12 aa] too.
0.698

Same read-out for KGMKRLDYRFIH [SOA1 C-terminal 12 aa] ?
0.688

Request: RSKYGAKKPSKS [MRPS12 C-terminal 12 aa]
0.682

Now try LSQWVSQMPFPM [LRO1 C-terminal 12 aa] .
0.798

Cool, now SDVISEESYNEA [SVF1 C-terminal 12 aa]
0.707

Queued: HIFYFVLSYSEW [YIL030W-A C-terminal 12 aa]
0.172

Similarly, SAQRDRRYRKRV [RPS17A C-terminal 12 aa] ?
0.666

Now try RTLGYSNNNGNN [UBX6 C-terminal 12 aa] .
0.679

Now the same for KAALDRVENALA [IML2 C-terminal 12 aa]
0.699

Then DSIRRIREKYSN [APP1 C-terminal 12 aa] ?
0.69

Same question, KFEKKLYNFLGF [GEP4 C-terminal 12 aa] this time
0.701

Can you check CVNSASLNLKKD [MXR2 C-terminal 12 aa] next?
0.695

Now consider VFPETDSIFEPV [RAF1 C-terminal 12 aa] .
0.733

One more sequence: GEGESIDDKLTD [STB1 C-terminal 12 aa]
0.698

# iterate: VFNDIFRLNYSA [NTF2 C-terminal 12 aa]
0.711

Try the sequence EESEKQLYTVLK [CUS1 C-terminal 12 aa]
0.688

Now give it for EDEFLINSDDEM [CUE5 C-terminal 12 aa] too.
0.726

Queued: EQLADYLIGVQY [PFY1 C-terminal 12 aa]
0.686

Item: VMSLYNLACKYI [SAM37 C-terminal 12 aa]
0.797

Queued: MQHRGWSSLMSL [YJR146W C-terminal 12 aa]
0.703

Next sequence: YKELVKNIESKL [CIT2 C-terminal 12 aa]
0.752

What about SAENEESKEKCE [LAG1 C-terminal 12 aa] ?
0.696

What would you report for GTVCYGMIEIFF [VTC5 C-terminal 12 aa] ?
0.596

Ok, now WTTEPYLQRIIW [DIE2 C-terminal 12 aa]
0.753

How about this sequence: DLLDMIDSLGKL [FSH3 C-terminal 12 aa]
0.688

For SRIKWHVGTAYS [HHY1 C-terminal 12 aa] then?
0.694

Follow-up item: LQNNDVTIGFAK [MUD1 C-terminal 12 aa]
0.715

YEGPTLTEFEDA [CYB2 C-terminal 12 aa] ?
0.69

Request: EQQNFEKCNEYI [NPL6 C-terminal 12 aa]
0.691

Repeat with SLKDLIMQVTKM [CTO1 C-terminal 12 aa]
0.753

Entry to check: GYACPTHYLREM [MXR1 C-terminal 12 aa]
0.69

Then what about the sequence LTLIPILFGKLQ [YNL203C C-terminal 12 aa] ?
0.688

One more sequence: IYSVIQCLFLHS [YMR141W-A C-terminal 12 aa]
0.64

# repeat for FFSKKRPNIDSK [YOL037C C-terminal 12 aa]
0.696

Try RNVDKLDVFSNS [MRM2 C-terminal 12 aa] next.
0.716
